IC50 values by entry
- targetDesc: UniProt Q9NR97
- Sequence (Q9NR97 27-1041): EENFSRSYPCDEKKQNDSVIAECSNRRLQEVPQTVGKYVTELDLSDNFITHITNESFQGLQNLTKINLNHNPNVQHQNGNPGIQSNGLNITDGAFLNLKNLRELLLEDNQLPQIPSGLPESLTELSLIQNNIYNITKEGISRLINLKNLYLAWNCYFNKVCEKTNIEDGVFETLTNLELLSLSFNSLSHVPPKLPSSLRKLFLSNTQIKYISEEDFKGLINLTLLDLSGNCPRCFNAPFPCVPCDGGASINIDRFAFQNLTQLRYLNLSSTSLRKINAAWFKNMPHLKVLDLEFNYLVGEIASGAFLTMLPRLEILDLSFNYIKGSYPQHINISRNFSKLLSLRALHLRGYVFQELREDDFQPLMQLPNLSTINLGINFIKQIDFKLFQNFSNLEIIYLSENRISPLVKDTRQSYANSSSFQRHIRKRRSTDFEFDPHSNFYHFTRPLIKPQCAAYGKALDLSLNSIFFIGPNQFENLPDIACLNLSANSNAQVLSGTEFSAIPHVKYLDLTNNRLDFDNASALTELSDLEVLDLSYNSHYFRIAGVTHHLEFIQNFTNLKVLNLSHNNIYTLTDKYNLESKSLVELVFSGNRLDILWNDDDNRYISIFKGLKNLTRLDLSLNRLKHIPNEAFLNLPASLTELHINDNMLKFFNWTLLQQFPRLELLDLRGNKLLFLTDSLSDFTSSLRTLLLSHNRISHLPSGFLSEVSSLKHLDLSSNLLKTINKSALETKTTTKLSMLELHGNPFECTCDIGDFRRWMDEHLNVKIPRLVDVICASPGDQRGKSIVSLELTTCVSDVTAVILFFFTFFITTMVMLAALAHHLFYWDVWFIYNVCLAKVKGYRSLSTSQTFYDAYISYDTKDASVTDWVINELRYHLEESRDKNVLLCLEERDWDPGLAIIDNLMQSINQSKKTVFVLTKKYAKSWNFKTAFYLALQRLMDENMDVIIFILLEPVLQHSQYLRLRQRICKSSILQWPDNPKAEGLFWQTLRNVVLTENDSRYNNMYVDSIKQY
- assayInfo: TLR8 inhibition reporter assay (HEK-Blue SEAP);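 note: SEAP driven by IFN-β minimal promoter carrying NF-κB and AP-1 sites, compounds dosed 0.05 nM to 50 µM for 22 h, inhibition scaled between agonist-plus-DMSO and reference-inhibitor wells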
- experimentalConditions: read-out: TLR8 IC50; HEK-Blue cells overexpressing human TLR8, R848 15.9 μM stimulation, SEAP reporter
Just the number in nM, nothing appended.

# compound, measValue
measured = [
    ("COc1cc(-c2[nH]c3cc(C)c(C4CCC(NC5CCOC5)CC4)nc3c2C(C)C)cn2ncnc12 (stereo not drawn) [Example 329]", 23),
]

// returns reported IC50 for input COc1cc(-c2[nH]c3ccc(C4CCC(N(C)CCC#N)CC4)nc3c2C(C)C)cn2ncnc12 (stereo not drawn) [Example 166]
18

// returns reported IC50 for input COc1cc(-c2[nH]c3ccc(C4CCC(N(C)Cc5cnc(C)cn5)CC4)nc3c2C(C)C)cn2ncnc12 (stereo not drawn) [Example 202]
28

// returns reported IC50 for input CC(C)c1c(-c2cn(C)c3ncncc23)[nH]c2ccc(N3CCN(C(C)C)CC3)nc12
1.5

// returns reported IC50 for input Cc1cc(-c2[nH]c3ccc(C4CCC(N(C)C5COC5)CC4)nc3c2C(C)C)cn(C)c1=O (stereo not drawn)
57

// returns reported IC50 for input COc1cc(-c2[nH]c3cc(F)c(C4CCC(N5CC6(COC6)C5)CC4)nc3c2C(C)C)cn2ncnc12 (stereo not drawn) [Example 343]
0.54

// returns reported IC50 for input COc1cc(-c2[nH]c3ccc(C4CCC(N(C)CC(=O)N(C)C)CC4)nc3c2C(C)C)cn2ncnc12 (stereo not drawn) [Example 211]
6.8
